Data origin: PubChem BioAssay (NCI)

Entries and their measured TGI follow.
Tested on: DMS 114 small cell lung
Assay: NCI tumour cell line growth inhibition, 48 h
OBSERVABLE: TGI (µM)

>>> val("Cc1ccccc1-n1c2nc(=O)n(C)c(=O)c-2nc2ccccc21")
18.3
>>> val("CN1CCN(c2ccc3nc(-c4ccc5nc(-c6ccc(O)cc6)[nH]c5c4)[nH]c3c2)CC1")
483

====

Test system: SK-MEL-5 melanoma
Assay: NCI tumour cell line growth inhibition, 48 h
OBSERVABLE: TGI

>>> val("O=C1C=CC(=O)c2c1ccc1c3ccccc3n(-c3ccccc3[N+](=O)[O-])c21")
"21.2 µM"
>>> val("O=c1[nH]c(=O)n(C2OC(CO)C(O)C2O)cc1Oc1ccccc1 (stereo not drawn)")
"> 100 µM"
>>> val("Clc1ccc(-c2cc(-c3ccccc3)nc(NCCNc3ccnc4cc(Cl)ccc34)n2)cc1")
"3.2 µM"
>>> val("Nc1cc(=O)n(-c2ccccc2)c(=S)n1-c1ccccc1")
"> 100 µM"
>>> val("CC(C)(CCCCC(C)(C)[N+](C)(C)C)[N+](C)(C)C")
"> 100 µM"
>>> val("O=S(=O)(/N=c1/scc(-c2ccccc2)n1-c1ccccc1)c1ccc(N2N=C3c4ccccc4CC3C2c2cccs2)cc1 (stereo not drawn)")
"> 100 µM"
>>> val("CC(C)(C)c1cc2c(O)c(c1)Cc1cc(C(C)(C)C)cc(c1O)Cc1cc(C(C)(C)C)cc(c1O)Cc1cc(C(C)(C)C)cc(c1O)Cc1cc(C(C)(C)C)cc(c1O)Cc1cc(C(C)(C)C)cc(c1O)Cc1cc(C(C)(C)C)cc(c1O)Cc1cc(C(C)(C)C)cc(c1O)C2")
"> 50 µM"
>>> val("O=C1CC(=O)NC(=NNS(=O)(=O)c2ccccc2)N1")
"> 100 µM"
